Entry source: ChEMBL document CHEMBL2062487

Recorded MIC for the following compounds
Test system: Shigella dysenteriae
PROTOCOL: Antibacterial activity against Shigella dysenteriae by two fold broth dilution method
Format: functional

# COMPOUND, MIC
data = [
    ("O=C(Cn1cncn1)c1ccc(F)cc1", "> 512 µg/mL"),
    ("O=C(O)c1cn(C2CC2)c2c(Cl)c(N3CCC(NCC(O)(Cn4cncn4)c4ccc(Cl)cc4)C3)c(F)cc2c1=O (racemic)", "> 512 µg/mL"),
    ("OC(Cn1cncn1)(Cn1cncn1)c1ccc(F)cc1F", "> 512 µg/mL"),
]
